Kindly supply the reported inhibition values for the records listed here.
# experimental.system: Signal transducer and activator of transcription 3 (Homo sapiens)
# Sequence (P40763 whole entry): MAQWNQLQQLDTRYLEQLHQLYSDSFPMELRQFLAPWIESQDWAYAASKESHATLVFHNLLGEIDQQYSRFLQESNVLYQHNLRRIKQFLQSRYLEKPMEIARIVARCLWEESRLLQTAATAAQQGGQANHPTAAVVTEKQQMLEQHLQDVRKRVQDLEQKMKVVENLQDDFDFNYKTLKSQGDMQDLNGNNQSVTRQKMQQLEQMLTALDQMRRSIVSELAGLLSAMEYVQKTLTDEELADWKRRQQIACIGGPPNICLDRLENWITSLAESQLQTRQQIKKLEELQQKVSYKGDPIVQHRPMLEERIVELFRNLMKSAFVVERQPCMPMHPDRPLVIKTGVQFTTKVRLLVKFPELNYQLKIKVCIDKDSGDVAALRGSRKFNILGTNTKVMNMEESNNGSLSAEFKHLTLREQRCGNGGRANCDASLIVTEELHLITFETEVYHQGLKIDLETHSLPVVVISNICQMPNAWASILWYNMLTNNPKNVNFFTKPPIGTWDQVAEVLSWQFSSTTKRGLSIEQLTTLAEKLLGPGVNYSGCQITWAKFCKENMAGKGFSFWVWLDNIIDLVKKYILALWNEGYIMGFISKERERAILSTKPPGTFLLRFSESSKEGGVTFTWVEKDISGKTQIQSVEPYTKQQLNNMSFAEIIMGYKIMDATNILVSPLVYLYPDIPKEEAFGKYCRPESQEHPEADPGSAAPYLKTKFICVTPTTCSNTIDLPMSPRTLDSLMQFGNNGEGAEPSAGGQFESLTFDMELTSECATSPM
# assay.overview: Inhibition of STAT3 (unknown origin) expressed in Oncostatin M induced human HeLa cells at 50 uM incubated for 1 hr by luciferase reporter gene assay
# Format: cell-based
Give bare numbers, in %.

Worked set:
COc1cc(CNc2nn[nH]n2)cc(Cl)c1OCc1ccc(-c2nccs2)cc1; 0
COc1c(OCc2ccc([N+](=O)[O-])cc2)c(Cl)cc(CNc2nn[nH]n2)c1[N+](=O)[O-]; 19.6
CCCCCCOc1cc(COc2c(Cl)cc(CNc3nn[nH]n3)cc2OC)ccc1[N+](=O)[O-]; 60.1
COc1cc(CNc2nn[nH]n2)cc(Cl)c1OCc1ccc(F)cc1; 50.7
COc1cc(CNc2nn[nH]n2)cc(Cl)c1OCc1ccc(C)cc1; 53.9
COc1cc(CNc2nn[nH]n2)cc(Br)c1OCc1ccc([N+](=O)[O-])cc1; 48
COc1cc(CNc2nn[nH]n2)cc(Cl)c1OCc1ccc(SC)cc1; 0
COc1cc(CNc2nn[nH]n2)cc([N+](=O)[O-])c1OCc1ccc([N+](=O)[O-])cc1; 36
COc1cc(CNCC(=O)O)cc(Cl)c1OCc1ccc([N+](=O)[O-])cc1; 15.3

In the following, a different molecule is considered.
Reported inhibition for Clc1cc(CNc2nn[nH]n2)cc(OCCCc2ccccc2)c1OCc1ccccc1 : what is it?
26.9

Just for reference, ChEMBL document CHEMBL3627693 is where these values come from.
